tested on: HCT-116; test: Cytotoxicity against human HCT-116 cells assessed as cell growth inhibition after 48 hrs by MTT assay; format: functional, cell-based; conditions: HCT-116, 48 h
pIC50: −log10 of the molar value.
experimental.readout: pIC50

Task: Given CC1(C)C[C@H](O)[C@]2(CO)[C@H](O)[C@H](O)[C@]3(C)C(=CC[C@@H]4[C@@]5(C)CC[C@H](O[C@@H]6OC[C@H](O[C@@H]7O[C@H](CO)[C@@H](O)[C@H](O)[C@H]7O[C@@H]7OC[C@@H](O)[C@H](O)[C@H]7O)[C@H](O)[C@H]6O[C@@H]6O[C@H](CO)[C@@H](O)[C@H](O)[C@H]6O)C(C)(C)[C@@H]5CC[C@]43C)[C@@H]2C1 , state its recorded pIC50.
Result: < 5.00

Task: Follow-up entry: CC(=O)O[C@@H]1C[C@]2(C)C(=CC[C@@H]3[C@@]4(C)CC[C@H](O[C@@H]5OC[C@H](O[C@@H]6O[C@H](CO)[C@@H](O)[C@H](O)[C@H]6O[C@@H]6OC[C@@H](O)[C@H](O)[C@H]6O)[C@H](O)[C@H]5O[C@@H]5O[C@H](CO)[C@@H](O)[C@H](O)[C@H]5O)C(C)(C)[C@@H]4CC[C@]32C)[C@@H]2CC(C)(C)C[C@H](O)[C@]12CO
Result: < 5.00

Task: Follow-up entry: CC(=O)OC[C@@]12[C@H](O)[C@H](O)[C@]3(C)C(=CC[C@@H]4[C@@]5(C)CC[C@H](O[C@@H]6OC[C@H](O[C@@H]7O[C@H](CO)[C@@H](O)[C@H](O)[C@H]7O[C@@H]7OC[C@@H](O)[C@H](O)[C@H]7O)[C@H](O)[C@H]6O[C@@H]6O[C@H](CO)[C@@H](O)[C@H](O)[C@H]6O)C(C)(C)[C@@H]5CC[C@]43C)[C@@H]1CC(C)(C)[C@@H](OC(C)=O)[C@@H]2O
Result: < 5.00
